target: human IL-17A / human IL-17RA (Homo sapiens (Human)); test: Human IL-17A biochemical assay (HTRF, blocking of IL-17A binding to IL-17RA); settings: 0.4 nM IL-17A, 0.3 nM IL-17RA, max compound concentration 10 uM
Sequence (Q16552 24-155): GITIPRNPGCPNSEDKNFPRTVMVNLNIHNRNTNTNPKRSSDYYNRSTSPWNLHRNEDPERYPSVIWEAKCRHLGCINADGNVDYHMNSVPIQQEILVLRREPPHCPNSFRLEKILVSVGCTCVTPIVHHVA
fulfilled if IC50 is below 20 nM. not fulfilled if not; exact matches included in not fulfilled.

Just wondering, is IC50 of CNC(=O)C1(N2C[C@@H](C(C)C)NC2=O)Cc2ccc(NC(=O)C(NC(=O)c3ccnn3C)C3CCc4cc(Cl)ccc4C3)cc2C1 (stereo partly drawn) below 20 nM?
fulfilled

Just wondering, is IC50 of CNC(=O)C1(N2CC3(CC3)CNC2=O)Cc2ccc(NC(=O)[C@@H](NC(=O)c3cc(C#N)cn3C)C3CCCCC3)cc2C1 (stereo partly drawn) below 20 nM?
fulfilled

Just wondering, is IC50 of CNC(=O)C1(N2C[C@@H](C(C)C)NC2=O)Cc2ccc(NC(=O)C(NC(=O)c3ccnn3C)C3CCc4ccccc43)cc2C1 (stereo partly drawn) below 20 nM?
not fulfilled

Just wondering, is IC50 of Cc1nonc1C(=O)N[C@H](C(=O)Nc1ccc2c(c1)CC(C(=O)NC1CCOC1)(N1C[C@@H](C(C)C)NC1=O)C2)C(C1CC1)C1CC1 (stereo partly drawn) below 20 nM?
fulfilled

Just wondering, is IC50 of CNC(=O)C1(N2CC(C)(Cc3ccccc3)CNC2=O)Cc2ccc(NC(=O)[C@@H](NC(=O)c3ccnn3C)C3CCCCC3)cc2C1 (stereo partly drawn) below 20 nM?
not fulfilled

Just wondering, is IC50 of CNC(=O)C1(N2CC(C)NC2=O)Cc2ccc(NC(=O)[C@H](CC3CCCCC3)NC(=O)c3ccnn3C)cc2C1 (stereo partly drawn) below 20 nM?
not fulfilled
